Measured relative viability of individual entries
# Test system: NCI-H1651
# assay.explanation: relative viability (nuclei count vs DMSO), 5 days (fraction); higher = more cells survive
# condition.description: first compound 50 µM
attribute.measured: relative viability

>>> measured_value("O=C(O)CCCCC(CCSCc1ccccc1)SCc1ccccc1 (stereo unspecified) [CPI-613] + CC(=O)c1c(C)c2cnc(Nc3ccc(N4CCNCC4)cn3)nc2n(C2CCCC2)c1=O [Palbociclib] (partner 0.5 µM)")
0.487
>>> measured_value("O=C(O)CCCCC(CCSCc1ccccc1)SCc1ccccc1 (stereo unspecified) [CPI-613] + CC(C)C[C@H](NC(=O)[C@H](Cc1ccccc1)NC(=O)c1cnccn1)B(O)O [Bortezomib] (partner 0.002 µM)")
0.866
>>> measured_value("O=C(O)CCCCC(CCSCc1ccccc1)SCc1ccccc1 (stereo unspecified) [CPI-613] + Cc1nc(NC(=O)N2CCC[C@H]2C(N)=O)sc1-c1ccnc(C(C)(C)C(F)(F)F)c1 [Alpelisib] (partner 2 µM)")
0.967
>>> measured_value("O=C(O)CCCCC(CCSCc1ccccc1)SCc1ccccc1 (stereo unspecified) [CPI-613] + NC(=O)Nc1cc(-c2cccc(F)c2)sc1C(=O)N[C@H]1CCCNC1 [AZD7762] (partner 0.2 µM)")
0.421
>>> measured_value("O=C(O)CCCCC(CCSCc1ccccc1)SCc1ccccc1 (stereo unspecified) [CPI-613] + CS(=O)(=O)CCNCc1ccc(-c2ccc3ncnc(Nc4ccc(OCc5cccc(F)c5)c(Cl)c4)c3c2)o1 [Lapatinib] (partner 2 µM)")
0.781
>>> measured_value("O=C(O)CCCCC(CCSCc1ccccc1)SCc1ccccc1 (stereo unspecified) [CPI-613] + N=C(N)NC(=N)NCCc1ccccc1 [Phenformin] (partner 250 µM)")
0.303
